Values compiled from ChEMBL document CHEMBL5058577.

Test system: Fibroblast
ASSAY_NOTES: Multiplex assay against human fibroblast
Assay type: toxicity, cell-based
CONDITIONS: 12 h, 1 µM, compound concentration 1 uM, replicate 2
Class field: derived from Population Tubulin-Different-Phenotype (%); ranges category 1 (below 40%), category 2 (40% to below 50%), category 3 (50% or more)

MOLECULE: COc1cc(OC2CCN(C(C)=O)CC2)ccc1C(=O)N1CCC(N2C(=O)OCc3ccccc32)CC1
LABEL: category 1

MOLECULE: Cc1cc(O)c(-c2ccc([C@@H](C)CN(C)C)cc2)c2c1[nH]c(=O)c1sccc12
LABEL: category 3

MOLECULE: CC(C)(C)c1ccc(CSc2cnn(C(C)(C)C)c(=O)c2Cl)cc1 [PYRIDABEN]
LABEL: category 3

MOLECULE: COc1c(Nc2ccc(S(C)(=O)=O)nc2C)ncnc1OC1CCN(C(=O)OC(C)C)CC1 [ADP-597]
LABEL: category 1

MOLECULE: CCCCCCNC(=O)Nc1ccc(S(=O)(=O)Nc2ccc(CCNC[C@H](O)COc3ccc(O)cc3)cc2)cc1 [L-755507]
LABEL: category 1

MOLECULE: CCC(=O)OCC(=O)[C@@]1(OC(=O)CC)[C@@H](C)C[C@H]2[C@@H]3CCC4=CC(=O)C=C[C@]4(C)[C@@]3(Cl)[C@@H](O)C[C@@]21C [BECLOMETHASONE DIPROPIONATE]
LABEL: category 3

MOLECULE: Nc1nc(-c2ccco2)c2cnn(Cc3ccccc3F)c2n1
LABEL: category 2

MOLECULE: CSc1nc(NC2CCCC2)c([N+](=O)[O-])c(NC2CCCC2)n1 [GS-39783]
LABEL: category 3

MOLECULE: COc1cc2nc(N3CCN(C(=O)COc4c(OC)cccc4C(C)C)CC3)nc(N)c2cc1OC.Cl.Cl
LABEL: category 2

MOLECULE: Cc1cc(-c2ccc3c(c2)CC[C@H]3N2CC3(CCN(C(=O)Cc4cn5cc(C)sc5n4)CC3)C2)ncn1 [PF-5190457]
LABEL: category 2

MOLECULE: C=CCN1C[C@H](C(=O)N(CCCN(C)C)C(=O)NCC)C[C@@H]2c3cccc4[nH]cc(c34)C[C@H]21 [CABERGOLINE]
LABEL: category 1

MOLECULE: CC(C)(O)C(=O)N1CCN(c2ccc(C(F)(F)F)c(C3=C(c4c[nH]c5ccccc45)C(=O)NC3=O)c2)CC1
LABEL: category 3

MOLECULE: CN1CCN2c3ccccc3Cc3ccccc3C2C1.Cl (stereo not drawn) [MIANSERIN HYDROCHLORIDE]
LABEL: category 3

MOLECULE: N[C@](CC1c2ccccc2Oc2ccccc21)(C(=O)O)[C@H]1C[C@@H]1C(=O)O
LABEL: category 1

MOLECULE: CCc1nn2c(C)cc(C)nc2c1Cc1ccc(-c2nnc(C3CCNCC3)o2)cc1
LABEL: category 3

MOLECULE: CN(C)C(=O)Cn1cc(-c2ccc(-c3nnc4ccccn34)cc2)cn1
LABEL: category 2

MOLECULE: COC(c1ccccc1)(c1ccccc1)[C@H](Oc1nc(C)cc(C)n1)C(=O)O [AMBRISENTAN]
LABEL: category 1

MOLECULE: COc1ccc2c(c1OCc1ccccc1)C[C@@H](C(=O)O)N(C(=O)C(c1ccccc1)c1ccccc1)C2 [OLODANRIGAN]
LABEL: category 3

MOLECULE: O=C(O)CCC/C=C\CC1C(O)CC(O)C1/C=C/C(O)COc1cccc(Cl)c1 (stereo not drawn) [CLOPROSTENOL]
LABEL: category 3

MOLECULE: O=C(Nc1cc(-c2ccccc2)nn1-c1ccccc1F)c1ccc([N+](=O)[O-])cc1
LABEL: category 3

MOLECULE: CN1CCN(c2ccc(Nc3c4ccccc4nc4ccccc34)cc2)CC1.Cl.Cl.O
LABEL: category 1

MOLECULE: COc1cc(C(=O)N2CC[C@@H](O)[C@@H](N)C2)cc2nc(-c3cc4ccccc4n3CC3CC3)n(C)c12.Cl
LABEL: category 3

MOLECULE: CN1C[C@H](C(=O)N[C@]2(C)O[C@@]3(O)[C@@H]4CCCN4C(=O)[C@H](Cc4ccccc4)N3C2=O)C[C@@H]2c3cccc4[nH]cc(c34)C[C@H]21.CS(=O)(=O)O [DIHYDROERGOTAMINE MESYLATE]
LABEL: category 1

MOLECULE: Cc1cc(NC(=O)NCCN2CCC(O)(Cc3ccccc3)CC2)c2ccccc2n1 [PALOSURAN]
LABEL: category 2

MOLECULE: CC(C)C[C@H](CO)Nc1nc(S[C@@H](C)c2ccccc2)nc2nc(N)sc12 [AZD-8797]
LABEL: category 2

MOLECULE: S=C(NCCCc1c[nH]cn1)NCCCN(Cc1ccc(Cl)c(Cl)c1)c1ccc(Br)cn1
LABEL: category 1

MOLECULE: CC(F)(F)CN1CCOc2c(nn(-c3ccccc3Cl)c2-c2ccc(Cl)cc2)C1=O
LABEL: category 3

MOLECULE: COCCn1c(C)c(C)s/c1=N\C(=O)C1C(C)(C)C1(C)C
LABEL: category 1

MOLECULE: Cl.Cl.OCCOCCN1CCN(C(c2ccccc2)c2ccc(Cl)cc2)CC1 (stereo not drawn) [HYDROXYZINE HYDROCHLORIDE]
LABEL: category 2

MOLECULE: Nc1nc(CC(=O)Nc2ccc(CCNC[C@H](O)c3ccccc3)cc2)cs1 [MIRABEGRON]
LABEL: category 2

---

# reported Population Healthy Nuclei (%); entries follow
Test system: HEK-293T
ASSAY_NOTES: Multiplex assay against HEK293T
Type: toxicity, cell-based
CONDITIONS: human, 12 h, 10 µM, compound concentration 10 uM, replicate 2

COMPOUND: C[C@@H]1CC(=O)Nc2cccc(-c3ccc4c(c3)c(-c3cnn(C)c3)nn4C)c2N1
Population Healthy Nuclei (%): 77

COMPOUND: CC(C)(C)c1ccc(CSc2cnn(C(C)(C)C)c(=O)c2Cl)cc1
Population Healthy Nuclei (%): 74

COMPOUND: CC(C)C[C@H](CO)Nc1nc(S[C@@H](C)c2ccccc2)nc2nc(N)sc12
Population Healthy Nuclei (%): 75

COMPOUND: CN1C[C@H](C(=O)N[C@]2(C)O[C@@]3(O)[C@@H]4CCCN4C(=O)[C@H](Cc4ccccc4)N3C2=O)C[C@@H]2c3cccc4[nH]cc(c34)C[C@H]21.CS(=O)(=O)O [DIHYDROERGOTAMINE MESYLATE]
Population Healthy Nuclei (%): 80

COMPOUND: N[C@](CC1c2ccccc2Oc2ccccc21)(C(=O)O)[C@H]1C[C@@H]1C(=O)O
Population Healthy Nuclei (%): 81

COMPOUND: COC(c1ccccc1)(c1ccccc1)[C@H](Oc1nc(C)cc(C)n1)C(=O)O
Population Healthy Nuclei (%): 80

COMPOUND: CCCCCCNC(=O)Nc1ccc(S(=O)(=O)Nc2ccc(CCNC[C@H](O)COc3ccc(O)cc3)cc2)cc1
Population Healthy Nuclei (%): 79

COMPOUND: Nc1nc(-c2ccco2)c2cnn(Cc3ccccc3F)c2n1
Population Healthy Nuclei (%): 76

COMPOUND: Cc1cc(NC(=O)NCCN2CCC(O)(Cc3ccccc3)CC2)c2ccccc2n1
Population Healthy Nuclei (%): 75

COMPOUND: Cc1sc2c(c1C)C(c1ccc(Cl)cc1)=N[C@H](CC(=O)OC(C)(C)C)c1nnc(C)n1-2
Population Healthy Nuclei (%): 72

COMPOUND: CCc1nn2c(C)cc(C)nc2c1Cc1ccc(-c2nnc(C3CCNCC3)o2)cc1
Population Healthy Nuclei (%): 78

COMPOUND: Cc1cc(O)c(-c2ccc([C@@H](C)CN(C)C)cc2)c2c1[nH]c(=O)c1sccc12
Population Healthy Nuclei (%): 60

COMPOUND: COc1cc2nc(N3CCN(C(=O)COc4c(OC)cccc4C(C)C)CC3)nc(N)c2cc1OC.Cl.Cl
Population Healthy Nuclei (%): 67

COMPOUND: Cc1nn(C)c2nc(NNC(=O)Nc3cc(Cl)nc(Cl)c3)cc(C(C)C)c12
Population Healthy Nuclei (%): 74

COMPOUND: COc1cc(C(=O)N2CC[C@@H](O)[C@@H](N)C2)cc2nc(-c3cc4ccccc4n3CC3CC3)n(C)c12.Cl
Population Healthy Nuclei (%): 80

COMPOUND: Cn1cc(C(=O)OCC2CCN(CCNS(C)(=O)=O)CC2)c2ccccc21
Population Healthy Nuclei (%): 71

COMPOUND: CC(F)(F)CN1CCOc2c(nn(-c3ccccc3Cl)c2-c2ccc(Cl)cc2)C1=O
Population Healthy Nuclei (%): 75

COMPOUND: CSc1nc(NC2CCCC2)c([N+](=O)[O-])c(NC2CCCC2)n1
Population Healthy Nuclei (%): 84
